Tested on: P388 leukemia ip, CD2F1 mice, survival T/C
Experiment: NCI In Vivo Anticancer Drug Screen. Data for tumor model P388 Leukemia (intraperitoneal) in CD2F1 (CDF1) mice
Conditions: endpoint: median survival time; dose: 100.0 mg/kg/injection; schedule: Q04DX003 (ip); vehicle: saline with Tween-80
Toxic doses and inconclusive results are not listed. Rule for the calls: active = survival T/C of 150% or more; inactive = T/C below 125% in these data.
Respond only with the outcome that fits, drawn from active, inactive

// param item: Nc1nc2ccc(CNc3ccc(C(=O)NC(CCC(=O)O)C(=O)O)cc3)nc2c(=O)[nH]1 (stereo not given) ; yields the recorded call
active

// param item: CC(C)CNS(=O)(=O)c1ncnc2nc[nH]c12 ; yields the recorded call
inactive

// param item: O=c1c(O)c(-c2ccc(O)c(O)c2)oc2cc(O)cc(O)c12 ; yields the recorded call
inactive

// param item: CSc1ncc(Br)c(C(=O)O)n1 ; yields the recorded call
inactive

// param item: O=C(Nc1cccc2c1C(=O)c1ccc(Nc3cc(NC(=O)c4ccccc4)c4c(c3)C(=O)c3ccccc3C4=O)cc1C2=O)c1ccccc1 ; yields the recorded call
inactive

// param item: Cc1cc(=O)c2c(=O)[nH][nH]c2[nH]1 ; yields the recorded call
inactive

// param item: COc1cc[c]([Pb]([O]C(C)=O)([O]C(C)=O)[O]C(C)=O)cc1 ; yields the recorded call
inactive

// param item: Cc1ccc(Nc2n[nH]c(=S)s2)cc1C ; yields the recorded call
inactive

// param item: c1ccc2c(c1)SCC1COCOC21 (stereo not given) ; yields the recorded call
inactive

// param item: ClCC[N+]12CC[N+](CCCl)(CC1)C2 ; yields the recorded call
active

====

Tested on: P388 leukemia ip, CD2F1 mice, survival T/C
Assay: NCI In Vivo Anticancer Drug Screen. Data for tumor model P388 Leukemia (intraperitoneal) in CD2F1 (CDF1) mice
Conditions: endpoint: median survival time; dose: 12.5 mg/kg/injection; schedule: Q01DX005 (ip); vehicle: Klucel (hydroxypropylcellulose) (HPC); higher = longer survival
Toxic doses and inconclusive results are not listed. Peptide text beside a SMILES is read from it. * marks the point of attachment. Cbz = O=C(OCc1ccccc1)*
Item-by-item account of T/C

Answered cases to consult:
MOLECULE	TESTED_TARGET	T/C
CC1(C)CCC[C@]2(C)[C@@H](C=O)C(C=O)=CC[C@@H]12	P388 leukemia ip, CD2F1 mice, survival T/C	106 % of control
CC(NC(=O)OCc1ccccc1)C(=O)NC(C(N)=O)C(C)C (stereo not drawn) (Cbz-Ala-Val-NH2; configuration not given here)	P388 leukemia ip, CD2F1 mice, survival T/C	89 % of control
O=C(N/N=C/c1cccnc1)C(=O)Nc1cccc(C(F)(F)F)c1	P388 leukemia ip, CD2F1 mice, survival T/C	89 % of control
CCc1nc(N)nc(N)c1-c1ccc(NCCN)c(N)c1	P388 leukemia ip, CD2F1 mice, survival T/C	104 % of control
O=C(Nc1ccc(NC2=NCCN2)cc1)c1cc(Cl)cc(C(=O)Nc2ccc(NC3=NCCN3)cc2)c1	P388 leukemia ip, CD2F1 mice, survival T/C	98 % of control

Now for another entry.
Look up T/C for this molecule: COc1ccc2c3c([nH]c2c1N)C(C)NCC3 (stereo unspecified)
102 % of control

====

System: P388 leukemia ip, CD2F1 mice, survival T/C
Experiment: NCI In Vivo Anticancer Drug Screen. Data for tumor model P388 Leukemia (intraperitoneal) in CD2F1 (CDF1) mice
Conditions: endpoint: median survival time; dose: 100.0 mg/kg/injection; schedule: Q01DX005 (ip); vehicle: saline; higher = longer survival
Toxic doses and inconclusive results are not listed. Peptide text beside a SMILES is read from it.
Item-by-item account of T/C

Answered cases to consult:
COMPOUND	RECORDED_METRIC	ASSAY_RESULT
CN1CCC/C1=N\S(=O)(=O)/N=C1\CCCN1C	T/C	100 % of control
CC(C)CC(NC(=O)C(N)CCCN=C(N)N)C(=O)O (stereo not drawn) (H-Arg-Leu-OH; configuration not given here)	T/C	100 % of control
CCCCNC(=O)NC1OC(CO)C(O)C1O (stereo not given)	T/C	97 % of control
c1ccc(CON(CCc2ccncc2)CCc2ccncc2)cc1	T/C	103 % of control
COc1cc([C@@H]2c3cc4c(cc3[C@H](O)[C@@H](CO)[C@@H]2C(=O)O)OCO4)cc(OC)c1OC	T/C	94 % of control

Look up T/C for this compound: CN(C)CCCN1CC2CC=CCC2C1 (stereo not given)
99 % of control

Look up T/C for this compound: CCN(CC)CCNC
95 % of control

Look up T/C for this compound: CCN(CC)c1ccc(C(NCCC(C)C)C(Cl)(Cl)Cl)cc1 (stereo not given)
101 % of control

Look up T/C for this compound: NCCSCCO
100 % of control

Look up T/C for this compound: CC(NCCCCNC(C)C(=O)O)C(=O)O (stereo not given)
103 % of control

Look up T/C for this compound: COC(=O)C[CH2][Sn]([CH2]CC(=O)OC)([c]1ccccc1)[c]1ccccc1
100 % of control

Look up T/C for this compound: CN(C)CCC(C#N)(CCN(C)C)c1ccccc1
103 % of control

Source listed as PubChem BioAssay AID330.
